# Test system: Camellia oleifera 'Huaxin' 2n pollen
# Method Description: 2n pollen yield (occurrence frequency) after precursor application and 45° C. high-temperature treatment of flower branches
# Format: in vivo
# Condition Description: Injection into a flower bud, DMTU 10 mg/L, mannitol 0.5 g/L, ascorbic acid 1.5 mg/L, brassinolide 4.0 mg/L, 4 h (Example 2B)
Endpoint Label: 2n pollen yield (%)
Answers without a unit are incomplete; give the number and then its unit.

Consider the following illustrative entries.
{"columns": ["Compound", "2n pollen yield (%)"],
 "data": [
  ["CC(C)[C@H](C)[C@@H](O)[C@H](O)[C@@H](C)[C@H]1CC[C@H]2[C@@H]3COC(=O)[C@H]4C[C@H](O)[C@H](O)C[C@]4(C)[C@H]3CC[C@]12C [Brassinolide, brassinolide]", "11.03%"],
  ["OC[C@@H](O)[C@@H](O)[C@H](O)[C@H](O)CO", "9.68%"],
  ["O=C1O[C@H]([C@@H](O)CO)C(O)=C1O", "10.05%"]
]}

### Prompt Item under review: `CNC(=S)NC` . Reported 2n pollen yield (%)?
### Response 12.17%

###

# System: Camellia oleifera 'Huaxin' 2n pollen
# Method Description: 2n pollen yield (occurrence frequency) after precursor application and 45° C. high-temperature treatment of flower branches
# Assay type: in vivo
# Condition Description: Spraying on a flower branch, DMTU 10 mg/L, mannitol 0.5 g/L, ascorbic acid 1.5 mg/L, brassinolide 4.0 mg/L, 4 h (Example 2B)
# Experimental: After the high-temperature treatment was released, Camellia oleifera grew naturally until anthers were pollinated. Pollen of each treatment was collected, and a temporary smear of the pollen was made by an aceto-carmine staining method and then photographed by an OlympusDP70 optical microscope; and a diameter of pollen in a temporary smear of each treatment was measured by Image J software, and a yield and a fertility rate of 2n pollen were counted. […]
Endpoint Label: 2n pollen yield (%)
Response body: numeric value in %, unit text excluded.

Consider the following illustrative entries.
{"columns": ["Compound", "Unit Descriptor", "2n pollen yield (%)"],
 "data": [
  ["CC(C)[C@H](C)[C@@H](O)[C@H](O)[C@@H](C)[C@H]1CC[C@H]2[C@@H]3COC(=O)[C@H]4C[C@H](O)[C@H](O)C[C@]4(C)[C@H]3CC[C@]12C [Brassinolide, brassinolide]", "%", 10.83],
  ["OC[C@@H](O)[C@@H](O)[C@H](O)[C@H](O)CO", "%", 9.81],
  ["O=C1O[C@H]([C@@H](O)CO)C(O)=C1O", "%", 9.76]
]}

We now examine a further compound.
### Prompt Item under review: `CNC(=S)NC` . Reported 2n pollen yield (%)?
### Response 11.52
